# test.protocol: First-in-human study Part 3, 100-mg SDD tablet food effect
# Type: in vivo
# test.conditions: plasma, oral, 200 mg, AUC0‐last, single 200 mg dose of 100‐mg SDD tablets, Fed, geometric mean (%CV)
metric.name: AUC

# AUC of O=c1[nH]c(=O)c(Cc2cccc(C(F)(F)F)c2)c([C@H]2CC[C@H](c3ccccc3)CC2)[nH]1 [miricorilant] = 3560 ng·h/mL

====

# test.protocol: DDI perpetrator study
# Assay type: in vivo
# test.conditions: human, plasma, oral, 400 mg
metric.name: Cmax at 10 study day (ng/mL)
Provide the reading as a plain figure in ng/mL.

# Cmax at 10 study day of "O=c1[nH]c(=O)c(Cc2cccc(C(F)(F)F)c2)c([C@H]2CC[C@H](c3ccccc3)CC2)[nH]1" = 895

====

# test.protocol: DDI perpetrator study
# Assay type: in vivo
# test.conditions: human, plasma, oral, 400 mg
metric.name: AUC (ng·h/mL)
Provide the reading as a plain figure in ng·h/mL.

# AUC of "O=c1[nH]c(=O)c(Cc2cccc(C(F)(F)F)c2)c([C@H]2CC[C@H](c3ccccc3)CC2)[nH]1" = 11400

====

# test.protocol: DDI perpetrator study
# Type: in vivo
# test.conditions: human, plasma, oral, 400 mg
metric.name: half-life at 10 study day (h)
Provide the reading as a plain figure in h.

# half-life at 10 study day of "O=c1[nH]c(=O)c(Cc2cccc(C(F)(F)F)c2)c([C@H]2CC[C@H](c3ccccc3)CC2)[nH]1" = 12.2

====

# Test system: CYP3A4
# test.protocol: clinical
# test.conditions: human, plasma, oral, 2.5 mg, AUC0‐last, midazolam, probe alone (day 1), geometric mean
metric.name: AUC

# AUC of "Cc1ncc2n1-c1ccc(Cl)cc1C(c1ccccc1F)=NC2" = 0.0375 µg·h/mL

====

# test.protocol: First-in-human study, multiple ascending dose
# Type: in vivo
# test.conditions: human, plasma, oral
metric.name: half-life

# half-life of "O=c1[nH]c(=O)c(Cc2cccc(C(F)(F)F)c2)c([C@H]2CC[C@H](c3ccccc3)CC2)[nH]1" = ~1200 min

====

metric.name: pIC50
Field pIC50 (float): negative decimal logarithm of the concentration in molar.

// returns pIC50 for O=c1[nH]c(=O)c(Cc2cccc(C(F)(F)F)c2)c([C@H]2CC[C@H](c3ccccc3)CC2)[nH]1 [miricorilant] with CYP2C8 (Homo sapiens); value = 5.12

====

# test.protocol: First-in-human study Part 3, 100-mg SDD tablet food effect
# Format: in vivo
# test.conditions: plasma, oral, 200 mg, Cmax, single 200 mg dose of 100‐mg SDD tablets, Fasted, geometric mean (%CV)
metric.name: Cmax (ng/mL)
Provide the reading as a plain figure in ng/mL.

# Cmax of O=c1[nH]c(=O)c(Cc2cccc(C(F)(F)F)c2)c([C@H]2CC[C@H](c3ccccc3)CC2)[nH]1 [miricorilant] = 105

====

# test.protocol: In vitro blood/plasma partitioning
# Type: in vitro ADME
# test.conditions: human, whole blood
metric.name: blood plasma ratio
Answer with a bare number; do not write a unit.

# blood plasma ratio of O=c1[nH]c(=O)c(Cc2cccc(C(F)(F)F)c2)c([C@H]2CC[C@H](c3ccccc3)CC2)[nH]1 [miricorilant] = 1.14

====

# test.protocol: First-in-human study Part 3, 100-mg SDD tablet food effect
# Assay type: in vivo
# test.conditions: plasma, oral, 200 mg, AUC0‐last, single 200 mg dose of 100‐mg SDD tablets, Fasted, geometric mean (%CV)
metric.name: AUC

# AUC of "O=c1[nH]c(=O)c(Cc2cccc(C(F)(F)F)c2)c([C@H]2CC[C@H](c3ccccc3)CC2)[nH]1" = 1620 ng·h/mL

The measurements presented in this section are drawn from paper PMC12709667.
